Test system: HL-60(TB) leukemia
Assay: NCI tumour cell line growth inhibition, 48 h
quantity.name: TGI (µM)
I only need the number, in µM, no unit after it.

Q. Record request: TGI value, item COC(C)(C)[C@@H](O)[C@H](O)C[C@H](C)C1=C2CC[C@@H]3[C@@]4(C)CC[C@@H](OC(C)=O)C(C)(C)[C@@H]4C[C@@H](OC4OC(COC(C)=O)C(O)C(O)C4O)[C@@]3(C)[C@]2(C)CC1 (some centres undefined)
A. 16

Q. # get_value(readout='TGI', item= `FC(F)(F)c1cc(N(C2c3ccccc3C=Cc3ccccc32)P(Cl)Cl)cc(C(F)(F)F)c1` )
A. 81.6

Q. Entry under review: `CSC(SC)=C(C#N)C(=O)Nc1cccc(Cl)c1` . Reported TGI?
A. 35.2

Q. // returns reported TGI for input `COc1ccc(/C=C(/c2ccccc2)[N+](=O)[O-])c(OC)c1`
A. 5.25

Q. Requested read-out: TGI. Entry: CC1C(NNC(N)=O)Oc2cc3c(cc2C1c1ccccc1O)OCO3 (centres undefined)
A. 35.4

====

Could you please report measured TGI for the items listed next?
Test system: HCT-116 colon
Test: NCI tumour cell line growth inhibition, 48 h
# output: bare number, implied unit µM

Q. # input molecule: `CCC(=O)N1C/C(=C/c2ccc(Cl)cc2)C(=O)/C(=C/c2ccc(Cl)cc2)C1` ; wanted: its TGI
A. 0.435

Q. // lookup TGI for CCC1(O)CC(OC2CC(N(C)C)C(OC3CC(O)C(OC4OC(C)C(=O)C=C4N)C(C)O3)C(C)O2)c2c(cc3c(c2O)C(=O)c2c(O)cccc2C3=O)C1C(=O)OC (centres undefined)
A. 1.79

Q. Need TGI of CC(=O)n1cc(C2CC23N=C(c2ccccc2)OC3=O)c2ccccc21 (centres undefined) , thanks.
A. 27.9

Q. Entry `CCOC(=O)/C(C(N)=O)=C(\O)C(=O)/C(Br)=C(\O)c1ccccc1` : reported TGI = ?
A. 32

====

Test system: OVCAR-5 ovarian
Assay: NCI tumour cell line growth inhibition, 48 h
quantity.name: GI50

Q. Look up GI50 with OVCAR-5 ovarian for this compound: `Cc1ccc2nc3ccccc3c(NCc3ccc(Cl)cc3)c2c1`
A. 4.67 µM

Q. Under OVCAR-5 ovarian: GI50 value of `Fc1ccc(-c2ncn(C3CCNCC3)c2-c2ccnc(Oc3ccc4c(c3)OCO4)n2)cc1` ?
A. > 25 µM

Q. Report GI50 for `CCOc1ccc2c(-c3ccnc(Nc4cc(OC)cc(C(F)(F)F)c4)n3)cnn2n1` tested on OVCAR-5 ovarian.
A. > 25 µM

Q. Missing value: GI50, OVCAR-5 ovarian, entry CCC1(O)CC(OC2CC(N(C)C)C(OC3CC(O)C(OC4OC(C)C(=O)C=C4N)C(C)O3)C(C)O2)c2c(cc3c(c2O)C(=O)c2c(O)cccc2C3=O)C1C(=O)OC (centres undefined) . Fill in?
A. 0.0152 µM

Q. What value of GI50 on OVCAR-5 ovarian does `CN(C)C(=O)Nc1nc2cc(Cl)c(Cl)cc2[nH]1` have?
A. 19.8 µM

Q. Write down the reported GI50 of `COc1ccc(C(=O)Cn2c(C(=O)c3ccccc3)nc3ccccc32)cc1` , test system: OVCAR-5 ovarian.
A. > 26.1 µM

Q. Missing value: GI50, OVCAR-5 ovarian, entry CC1=CC2C(C(O)CC3(C)C2CC(C)C32OCOC23COCO3)C2(C)C/C(=C/O)C(=O)C=C12 (centres undefined) . Fill in?
A. 1.98 µM

Q. Hello, I am looking for reported GI50 with OVCAR-5 ovarian for `[2H]C([2H])([2H])NC(=O)c1nnc(NC(=O)C2CC2)cc1Nc1cccc(-c2ncn(C)n2)c1OC` . Could you help?
A. > 100 µM

Q. Form: Entry = Oc1c(C(Nc2ccccc2Br)c2ccccc2)ccc2cccnc12 (centres undefined) | System = OVCAR-5 ovarian | GI50 = ____
A. 5.34 µM

====

Test system: OVCAR-5 ovarian
Assay: NCI tumour cell line growth inhibition, 48 h
Can you tell me TGI for the items I'm about to list?

Q. Give the measured TGI of `C/C(CC(=O)NCCc1ccccc1)=N\NS(=O)(=O)c1ccc(C)cc1` .
A. > 100 µM

Q. # TGI lookup, item C#CC[C@@]12CC(=O)C[C@@H]1CCC1(C2)OCCO1 (tested in a mixture with another compound)
A. > 100 µM

Q. Given the compound `COc1cc(-c2nc3ccccc3s2)ccc1OCCCCOc1cc2c(cc1OC)C(=O)N1CCC[C@H]1C=N2` , what is its reported TGI?
A. 4.93 µM

Q. If you can, please state the reported TGI value of COC(=O)c1ccccc1C1CN=NC12Cc1c(ccc3c1CCC3)C2=O (configuration not stated) .
A. > 100 µM

Q. Quick check: TGI of CCOC(=O)C1CC(C(=O)c2ccccc2)N2c3ccccc3-c3ccccc3C12 (configuration not stated) ?
A. > 100 µM

Q. # input compound: Fc1cccc(F)c1C1SCc2nc3cc(Cl)c(Cl)cc3n21 (configuration not stated) ; wanted: its TGI
A. > 100 µM

Q. Using the record for `N#CC1(C#N)C(C#N)(C#N)C1(C#N)C(N)=O` , report its TGI.
A. > 100 µM

Q. So what's the measured TGI for this one? `Cn1nc2ccc(Nc3cc(=O)[nH]c4ccc5nn(C)nc5c34)cc2n1`
A. > 100 µM

Q. For the compound shown here, `O=C1c2cc(Cc3ccccc3)c(=O)c(Cc3ccccc3)cc2C(=O)c2cc(Cc3ccccc3)c(=O)c(Cc3ccccc3)cc21` , give the reported TGI.
A. > 100 µM

Q. Data request, read-out TGI, for `CCC(=O)N1C/C(=C/c2ccc(Cl)cc2)C(=O)/C(=C/c2ccc(Cl)cc2)C1`
A. 3 µM

Q. # input compound: C[C@H]1[C@H](C)N1CC(O)Cn1ccnc1[N+](=O)[O-] (some centres not stated) ; wanted: its TGI
A. > 100 µM

Q. Which TGI value belongs to Cc1cn(C2CCC(CO)(CF)O2)c(=O)[nH]c1=O (configuration not stated) ?
A. > 100 µM

Q. Please give the measured TGI for this compound: `Cn1cccc1-c1ccc(-c2ccc(CO)[se]2)[se]1`
A. > 100 µM

Q. For the compound shown here, Cc1ccc(S(=O)(=O)NC(=O)NC(Cc2ccc(O)cc2)C(=O)O)cc1 (configuration not stated) , give the reported TGI.
A. > 100 µM

Q. // TGI lookup, key: `CC(=O)O[C@H]1CC[C@@]2(C)C(=CC[C@@H]3[C@@H]2CC[C@]2(C)C(=N/O)/C(=C\c4ccccc4)C[C@@H]32)C1`
A. 70.2 µM

Q. Bench note: what TGI did C=C(C(=O)O[C@H]1C/C(C)=C/CC/C(CO)=C/[C@H]2C(=O)OC(=C)[C@H]12)C(O)CO (some centres not stated) show?
A. 33 µM

Q. Query (compound): `COC(C/C(=C/CO[Si](C(C)C)(C(C)C)C(C)C)C(=O)N(COCC[Si](C)(C)C)c1ccccc1I)OC` ; field requested: TGI
A. 87.2 µM

Q. What does the data say about its TGI? Entry: CNC(=O)NCC1OC(n2cnc3c(NC(=O)Nc4ccccc4)ncnc32)C(O[Si](C)(C)C(C)(C)C)C1O[Si](C)(C)C(C)(C)C (configuration not stated)
A. 25.2 µM

Q. State the recorded TGI for this entry: `O=[N+]([O-])c1ccc(NN=C2CN3CCN(C2)c2ccccc23)c([N+](=O)[O-])c1`
A. > 100 µM

Q. I'd like to know its TGI. The compound in question is `Fc1ccc(-c2ncn(C3CCNCC3)c2-c2ccnc(Oc3ccc4c(c3)OCO4)n2)cc1`
A. > 25 µM

Q. // lookup TGI for `Cc1ccc(/C=C/c2c(C(=O)/C=C/c3ccccc3)c(C)nc3ccccc23)cc1`
A. 3.53 µM

Q. Value lookup for TGI; key = `CCCC[C@@H](C)/C=C1\CN2CCC[C@H]2[C@@](C)(OCc2ccccc2)[C@@H]1O`
A. > 50 µM

Q. Recorded TGI of `COC(=O)c1cc(-c2ccccc2)[nH]c1N/N=C/c1c(Cl)cccc1Cl` , please.
A. 16.7 µM

Q. Need TGI of O=C1C2C(C(=O)N1c1ccccc1)C1c3ccccc3C2C2C(=O)N(c3ccccc3)C(=O)C21 (configuration not stated) , thanks.
A. 99.5 µM

Q. Using the record for `COC(=O)c1c2c(c(C)[n+]([O-])c1C)C(=O)C=C(NCc1ccccc1)C2=O` , report its TGI.
A. 2.7 µM

Q. Report TGI for C1=C(c2ccccc2)C(N2CCOCC2)Oc2ccccc21 (configuration not stated) please.
A. > 100 µM

Q. # input compound: `COc1ccc(C#Cn2nnc3ccccc32)cc1` ; wanted: its TGI
A. > 100 µM

Q. Can you share its TGI? I mean this compound: `O=c1c2cc(C(F)(F)F)ccc2sc2c(NCCCNCCO)nc3ccccc3c12`
A. 3.04 µM

Q. What measured TGI goes with `CNc1nnc(CCCCCCCCc2nnc(NC)o2)o1` ?
A. > 100 µM

Q. Can you share its TGI? I mean this compound: `C(/C=N/NC1=NCCCCN1)=N\NC1=NCCCCN1`
A. > 100 µM

Q. # query: TGI of entry `Cc1ccc(/C=C(\C#N)c2cc3ccccc3n2C)cc1`
A. > 100 µM

Q. Param item = `COc1ccc(-c2cc(=O)n(-c3nc4ccccc4[nH]3)[nH]2)cc1OC` ; retrieve measured TGI.
A. > 100 µM

Q. Give the measured TGI of `CN(Cc1cnc2nc(N)nc(N)c2n1)c1ccc(C(=O)NC23CC4CC(CC(C4)C2)C3)cc1` .
A. 24.7 µM

Q. TGI lookup needed for `CCOC(=O)NC(=O)c1cn(CCN2CCN(C(=O)CNC(=O)CNC(=O)Cn3cc(C(=O)NC(=O)OCC)c(=O)[nH]c3=O)CC2)c(=O)[nH]c1=O` , thanks.
A. > 100 µM

Q. TGI for `O=C1NC(=O)c2ccccc2/C1=C/c1ccc2c(c1)OCO2` ?
A. > 100 µM

Q. Param item = Cc1ccc(S(=O)(=O)N/N=C(\c2nc3ccc(Cl)cc3[nH]c2=O)C(O)c2ccco2)cc1 (configuration not stated) ; retrieve measured TGI.
A. > 100 µM

Q. Quick one: TGI of `CN1/C(=C/C=C/C=C/C=C2C(=O)c3ccccc3C2=O)C(C)(C)c2ccccc21` ?
A. > 100 µM

Q. Could you tell me which TGI is on file for NC(CCCC(N)P(=O)(O)O)C(=O)O (configuration not stated) ?
A. > 100 µM

Q. Given the compound `CN(C)C(=O)Nc1nc2cc(Cl)c(Cl)cc2[nH]1` , what is its reported TGI?
A. > 100 µM

Q. Using the record for CC(=O)n1cc(C2CC23N=C(c2ccccc2)OC3=O)c2ccccc21 (configuration not stated) , report its TGI.
A. 49.7 µM

Q. // returns reported TGI for input COC(=O)[C@@H]1CS(=O)(=O)C(C(C)C)N1C(C)=O (some centres not stated)
A. > 100 µM

Q. I'd like to know its TGI. The compound in question is `CN(C)Cc1ccc(-c2cc3onc(-c4ccccc4)c3c(=O)n2C)cc1`
A. > 100 µM
